Target: DNA gyrase (Escherichia coli, UniProt P0AES4+P0AES6)
Assay: Inhibition of wild type Escherichia coli DNA gyrase subunit A2B2 using relaxed pBR322 DNA as substrate incubated for 30 mins in presence of ATP by ethidium bromide staining based agarose gel electrophoresis
measurement-label: IC50 (µM)
Give the quantity in µM, number only.

// CCOC(=O)c1cn(C2CC2)c2cc(N3CCNCC3)c(F)cc2c1=O : IC50 value = 10
